Origin of measurements: patent US20150210641A1

Molecular target: recombinant CYP-21 (Homo sapiens)
Sequence (P08686 whole entry, species assumed): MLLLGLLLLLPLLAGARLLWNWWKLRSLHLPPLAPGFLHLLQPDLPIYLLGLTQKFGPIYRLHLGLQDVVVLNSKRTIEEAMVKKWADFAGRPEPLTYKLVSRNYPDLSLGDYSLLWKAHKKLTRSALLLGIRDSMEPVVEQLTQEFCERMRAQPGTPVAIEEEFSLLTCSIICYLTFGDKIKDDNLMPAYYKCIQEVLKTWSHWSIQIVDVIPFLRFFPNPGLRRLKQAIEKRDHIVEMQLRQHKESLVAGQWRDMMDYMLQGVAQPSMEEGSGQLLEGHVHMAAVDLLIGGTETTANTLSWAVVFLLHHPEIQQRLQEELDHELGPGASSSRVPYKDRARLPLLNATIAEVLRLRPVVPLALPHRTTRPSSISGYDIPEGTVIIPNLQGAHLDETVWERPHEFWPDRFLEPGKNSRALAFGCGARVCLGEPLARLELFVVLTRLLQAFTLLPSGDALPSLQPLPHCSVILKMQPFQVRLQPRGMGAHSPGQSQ
Assay: Cyp21 assay: 11-deoxycortisol formation from 17-OH Progesterone in AD293 cells, LC/MS
Conditions: AD293 cells stably over-expressing recombinant CYP-21; eight concentrations 10 μM to 4.5 nM
measure: pIC50
pIC50 is defined as minus the log10 of a concentration measured in mol/L.

input: Answer with the recorded pIC50 for the molecule listed here: COc1cc(F)ccc1-c1ccc(C(F)(F)c2ccncc2)cc1
output: 6.63

input: Annotate the molecule CCOC(c1ccncc1)c1ccc(-c2ccc(OC)c(OC)c2)cc1 (stereo not shown) with its measured pIC50.
output: 6.72

input: Please indicate pIC50 recorded for COc1cc(F)ccc1-c1ccc(C(c2ccncc2)N2CCC(O)CC2)cc1 (stereo not shown)
output: 5.40

input: Hello, please tell me recorded pIC50 for this one: COc1ccc(-c2ccc(C(F)c3ccncc3)cc2)cc1OC (stereo not shown)
output: 6.03

input: Fill in pIC50 for record COc1cccc(-c2ccc(C(OC)c3ccncc3)cc2)c1 (stereo not shown)
output: 6.21

input: Return pIC50 for the following molecule: COc1cc(F)ccc1-c1ccc(C(NCCNC(=O)OC(C)(C)C)c2ccncc2)cc1 (stereo not shown)
output: 5.40

input: State, in one line, measured pIC50 of COc1ccc(-c2ccc(C(OC)c3ccncc3)cc2)cc1OC (stereo not shown)
output: 6.74

input: Retrieve pIC50 measured for COc1ccc(-c2ccc(C3(c4ccncc4)OCCO3)cc2)cc1OC and print it.
output: 6.25

input: For the molecule COc1cc(F)ccc1-c1ccc(C(OC)c2ccncc2)cc1 (stereo not shown) , give its measured pIC50 value.
output: 6.28

input: Indicate the recorded pIC50 value for this molecule: COc1ccc(-c2ccc(C(c3ccncc3)N3CCOCC3)cc2)cc1OC (stereo not shown)
output: 5.74

input: Indicate its recorded pIC50; the molecule in question is COc1ccc(-c2ccc(C(c3ccncc3)N3CCCC3)cc2)cc1OC (stereo not shown)
output: 5.60

input: Please give the documented pIC50 of COc1cc(F)ccc1-c1ccc(C(F)c2ccncc2)cc1 (stereo not shown)
output: 5.82

input: Identify measured pIC50 associated with COc1ccc(-c2ccc(C(F)(F)c3ccncc3)cc2)cc1OC
output: 6.39

input: Give reported pIC50 value for COc1cc(F)ccc1-c1ccc(C2(c3ccncc3)OCCO2)cc1 [Entry 4]
output: 6.49

input: Consider the molecule COc1ccc(-c2ccc(C(OC(C)C)c3ccncc3)cc2)cc1OC (stereo not shown) and give its recorded pIC50.
output: 6.68

input: Name the recorded pIC50 of the item COc1cc(F)ccc1-c1ccc(C2(c3ccncc3)OCC(C)(C)CO2)cc1 in your answer.
output: 5.66

input: Kindly indicate its recorded pIC50. Item: COc1ccc(-c2ccc(C(c3ccncc3)N3CCCCC3)cc2)cc1OC (stereo not shown)
output: 5.92

input: Return reported pIC50. Input molecule: COc1cc(F)ccc1-c1ccc(C2(c3ccncc3)OCC(C)CO2)cc1 (stereo not shown)
output: 6.28

input: Dear colleague, please send me the reported pIC50 for COc1cc(F)ccc1-c1ccc(C2(c3ccncc3)OCCO2)cc1 [Entry 3] when you can.
output: 6.09

input: Quick one: give measured pIC50 for COc1cccc(-c2ccc(C(c3ccncc3)N3CCCCC3)cc2)c1 (stereo not shown)
output: 5.62
